test: Plasmodium falciparum growth inhibition, primary screen, strain 3D7, DAPI fluorescence, 100 nL (AID 1184);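 note: parasites grown inside human red blood cells in medium with human serum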; conditions: P. falciparum 3D7 growth, 3 d, higher = more signal
# z-score per entry

- COMPOUND: "C=CCNC(=O)[C@@H]1[C@H]2C(=O)O[C@H](c3ccccc3)[C@H](c3ccccc3)N2[C@H](c2ccc(OCCO)cc2)[C@@]12C(=O)N(C(=O)OCCOC)c1ccc(C#CC3(O)CCCCCC3)cc12"
  z-score: -2.33
- COMPOUND: "COc1ccc([Si](C)(C)[C@@H]2[C@@H](CCO)O[C@]3(C(=O)N(Cc4ccccc4)c4ccccc43)[C@H]2C)cc1"
  z-score: -1.96
- COMPOUND: "CC(C)[Si]1(C(C)C)O[C@@H](c2ccccc2)c2cc(C3CC3)nc(-c3ccc(Oc4ccccc4)cc3)c21"
  z-score: -1.45
- COMPOUND: "COC(=O)C[C@H]1O[C@]2(C(=O)N(Cc3ccccc3)c3ccc(I)cc32)[C@@H](C)[C@@H]1[Si](C)(C)c1ccc(OC)cc1"
  z-score: -3.07
- COMPOUND: "O=C1C[C@@](C(=O)NCCN2CCOCC2)(c2ccc([N+](=O)[O-])cc2)[C@@H](c2ccc(CO)cc2)N1C1CCCCC1"
  z-score: -1.6

Prompt: What does the record list as z-score for CC(C)C[C@@H]1NC(=O)[C@H]2C[C@@H](C(=O)NCCCCCC[N+](C)(C)C)[C@@H](c3ccc(O)cc3)N2C1=O ?
Completion: 1.17

Prompt: Requested read-out: z-score. Entry: COC(=O)c1c(CC[C@@H](CO)NC(=O)N[C@H](Cn2cc(-c3cncn3C)nn2)C(C)C)oc(C(C)=O)c1C(=O)OC
Completion: -2.19

Prompt: For the compound shown here, C=CC[C@]1(C(=O)O)N=C(c2ccc(OCCCO)cc2)O[C@H]1c1ccccc1N=[N+]=[N-] , give the reported z-score.
Completion: -1.3

Prompt: # query: z-score of entry CN1C(=O)C2C=CC(C(O)C3CC=CCC3)N(Nc3ccccc3)C2C1=O (centres undefined)
Completion: 0.235

Prompt: What does the data say about its z-score? Entry: CC(C)[Si](OCCCNS(=O)(=O)c1ccc(Br)cc1)(C(C)C)C(C)C
Completion: -1.12

Prompt: Fill in the blank: the reported z-score of C=CC[C@@]1(C(=O)NCC(O)CO)N=C(c2ccc(OCCCO)cc2)O[C@@H]1c1ccccc1CN=[N+]=[N-] (some centres undefined) is ____.
Completion: -2.34
